Molecular target: Cytochrome P450 3A4 (Homo sapiens) (UniProt P08684)
Sequence (P08684 whole entry, looked up): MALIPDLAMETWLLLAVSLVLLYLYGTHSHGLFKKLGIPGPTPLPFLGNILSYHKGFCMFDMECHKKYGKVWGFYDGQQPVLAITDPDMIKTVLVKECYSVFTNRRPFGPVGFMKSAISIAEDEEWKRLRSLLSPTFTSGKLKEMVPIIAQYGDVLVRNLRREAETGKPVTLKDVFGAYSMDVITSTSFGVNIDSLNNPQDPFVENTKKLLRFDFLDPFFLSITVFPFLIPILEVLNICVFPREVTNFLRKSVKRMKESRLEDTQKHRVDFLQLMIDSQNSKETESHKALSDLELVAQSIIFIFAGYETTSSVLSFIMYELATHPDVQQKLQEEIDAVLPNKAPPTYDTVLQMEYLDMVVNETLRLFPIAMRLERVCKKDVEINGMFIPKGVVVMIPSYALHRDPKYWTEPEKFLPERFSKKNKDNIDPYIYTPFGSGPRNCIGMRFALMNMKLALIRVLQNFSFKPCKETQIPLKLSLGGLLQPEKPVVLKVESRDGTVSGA
Assay: Cytochrome panel assay with activity outcomes
Settings: recombinant CYP, pro-luciferin dealkylation, luminescence, p450-cyp3a4; series mostly up to 57.1 µM
Screen size: about 16,000 compounds; about 5,100 (32%) were called active. About 25% were inconclusive and are not listed. Calls come from the whole dose curve; as a rule, active = well fitted curve in the direction sought with a large enough effect; inconclusive = small, poorly fitted or top-dose-only effect, or effect the other way; inactive = no such curve, though single readings can be large or run the other way. This is one part of the list.
Respond only with the outcome that fits, drawn from T for active, F for inactive

Observe how each entry below is paired with its result.
| compound | category-label |
| --- | --- |
| CCc1ccc(N(C(=O)c2snc(C(N)=O)c2N)C(C(=O)NCCC(C)C)c2c[nH]c3ccccc23)cc1 (configuration not stated) | T |
| COC(=O)C/C=C\[C@@H](C)[C@@H](/C=N\OCC[C@H]1C=C[C@H](OC(C)=O)[C@@H](COC(C)=O)O1)NS(=O)(=O)c1ccc(C)cc1 | T |
| CC(C)CN1CCCC2(CCN(S(=O)(=O)c3ccccc3)CC2)C1 | T |
| Cc1cccc(NCCNc2cccc(C)c2)c1 | T |
| O=C(c1c[nH]c(=O)n(-c2ccccc2)c1=O)N1CCc2ccccc21 | F |
| Cc1ccc(-n2ccc(=O)c(-c3ccnc(SCc4cccc(Cl)c4)n3)n2)cc1 | T |
| CN(C)c1ncc2nc(-c3ccc(Cl)cc3)c(=O)n(C)c2n1 | F |
| Cc1cccc(C(=O)NNC(=O)C(=O)NC(C)(C)C)c1 | F |

Now let's try a different one.
Asked: Query: recorded result category for "CN[C@@H]1[C@H](O[C@@H]2O[C@H](CO)[C@@H](N)[C@H](O)[C@@H]2O)O[C@H]2C[C@@H](N)[C@@H](O[C@H]3[C@@H](O)[C@H](O)[C@H](N)C[C@@H]3N)O[C@H]2[C@H]1O" in this test
Given back: F

* * *

Biological target: Cytochrome P450 3A4 (Homo sapiens) (UniProt P08684)
Assay: Cytochrome panel assay with activity outcomes
Settings: recombinant CYP, pro-luciferin dealkylation, luminescence, p450-cyp3a4; series mostly up to 57.1 µM
The whole screen tested about 16,000 compounds, of which about 5,100 (32%) were called active. About 25% were inconclusive and are not listed. Calls come from the whole dose curve; as a rule, active = well fitted curve in the direction sought with a large enough effect; inconclusive = small, poorly fitted or top-dose-only effect, or effect the other way; inactive = no such curve, though single readings can be large or run the other way. The list shows a part of the results.
Returns: one label drawn from active, inactive

| compound | category-label |
| --- | --- |
| O=C(NCCCN1CCOCC1)c1cc(C(=O)C2CC2)c[nH]1 | inactive |

Asked: State the result this test recorded for "CCCCn1c(SCC(N)=O)nc2ccc(N3CCOCC3)cc2c1=O" .
Given back: active

Asked: Outcome logged for "N[C@@H](Cc1ccc(O)c(O)c1)C(=O)O" in this assay:
Given back: inactive

Asked: Per the assay record, what outcome was assigned to "COc1ccc(C(=O)CN2CCN(c3ccc(F)cc3)CC2)cc1OC" ?
Given back: active

Asked: Which outcome was assigned to Cc1ccc(Cl)cc1-n1c(=O)cc(N2CC(C)OC(C)C2)[nH]c1=O (stereo not drawn) in this test?
Given back: inactive

Asked: Please state the recorded outcome for this compound: "CN(C)C(N)=NCCC[C@H](N)C(=O)O"
Given back: inactive

* * *

Biological target: Cytochrome P450 3A4 (Homo sapiens) (UniProt P08684)
Assay: Cytochrome panel assay with activity outcomes
Settings: recombinant CYP, pro-luciferin dealkylation, luminescence, p450-cyp3a4; series mostly up to 57.1 µM
Out of some 16,000 compounds screened, about 5,100 (32%) were called active. Roughly 25% stayed inconclusive and do not appear here. Calls come from the whole dose curve; as a rule, active = well fitted curve in the direction sought with a large enough effect; inconclusive = small, poorly fitted or top-dose-only effect, or effect the other way; inactive = no such curve, though single readings can be large or run the other way. This is one part of the list.
In this exercise, the only acceptable responses are Yes (active), No (inactive)

Please review the following examples before continuing.
| compound | category-label |
| --- | --- |
| CN(Cc1ccco1)c1ncncc1-c1ccccc1Cl | Yes |
| O=C(/C=C/c1cccc(Cl)c1)Nc1ccncc1 | Yes |
| O=C(CCCN1C(=O)C2C3C=CC(C3)C2C1=O)N1CCN(c2ccccc2)CC1 (stereo unspecified) | Yes |
| Cc1cc(NC(=O)CCN2C(=O)C3C4CCC(C4)C3C2=O)c(C)cc1Br (stereo unspecified) | Yes |
| COc1ccccc1-c1cc(N(C)Cc2ccco2)ncn1 | No |

Alright, here's another compound for you.
Asked: Tell me the recorded outcome of this test for "COc1cc(/C=N/NC(=O)c2cccnc2)ccc1OC(=O)c1ccco1" .
Given back: Yes

* * *

Target: Cytochrome P450 3A4 (Homo sapiens) (UniProt P08684)
Assay: Cytochrome panel assay with activity outcomes
Conditions: recombinant CYP, pro-luciferin dealkylation, luminescence, p450-cyp3a4; series mostly up to 57.1 µM
The campaign covered roughly 16,000 compounds. About 5,100 (32%) were called active. Another 25% or so got no clear call; they are omitted. Calls come from the whole dose curve; as a rule, active = well fitted curve in the direction sought with a large enough effect; inconclusive = small, poorly fitted or top-dose-only effect, or effect the other way; inactive = no such curve, though single readings can be large or run the other way. This is one part of the list.
Tick one outcome: active, inactive

Consider the following illustrative entries.
| compound | system-tested | category-label |
| --- | --- | --- |
| O=C(c1cnccn1)N1CCC2(CC1)CN(Cc1nccs1)C2 | Cytochrome P450 3A4 (Homo sapiens) (UniProt P08684) | inactive |
| CC1(C)C(=O)C(c2ccccc2)=C2CN3C(=O)N(CCc4ccccc4)C(=O)C3(Cc3ccc(F)cc3)C=C21 (stereo not given) | Cytochrome P450 3A4 (Homo sapiens) (UniProt P08684) | active |
| C[C@@H]1C(=O)N(C)C(=O)c2nc[nH]c21 | Cytochrome P450 3A4 (Homo sapiens) (UniProt P08684) | inactive |

Asked: Given CC1CCCC(C)N1C(=O)c1ccccc1Nc1ccc(SC(F)F)cc1 (stereo not given) , state the outcome it received in this test.
Given back: active

Asked: Field: outcome | Entry: "O=S(=O)(NCc1cn2ccsc2n1)c1ccc(Oc2ccccc2)cc1"
Given back: active

* * *

Target: Cytochrome P450 3A4 (Homo sapiens) (UniProt P08684)
Experiment: Cytochrome panel assay with activity outcomes
Details: recombinant CYP, pro-luciferin dealkylation, luminescence, p450-cyp3a4; series mostly up to 57.1 µM
Among all 16,000 compounds or so, about 5,100 (32%) were called active. Roughly 25% stayed inconclusive and do not appear here. Calls follow the shape of the dose curve; as a rule, active = well fitted curve in the direction sought with a large enough effect; inconclusive = small, poorly fitted or top-dose-only effect, or effect the other way; inactive = no such curve, though single readings can be large or run the other way. Some of the results follow.
Write down the outcome that applies. Available outcomes: active, inactive

Asked: Recorded test call requested for "O=C(Cc1ccc(Br)cc1)Nc1ccccc1Sc1ccccc1"
Given back: active

Asked: Outcome? "O=C(CN1CCN(S(=O)(=O)c2ccccc2)CC1)NC(=O)NCc1ccccc1"
Given back: inactive

Asked: Assay result, entry "Cc1ccc2nc(Nc3nc(-c4ccccc4)cc(=O)[nH]3)nc(C)c2c1" — outcome?
Given back: active

Asked: Outcome? "O=C(Cc1ccc2c(c1)CCCC2)Nc1ccccc1Br"
Given back: inactive

Asked: Hi, sorry to bother you, what did the test record for "O=C(CCCCn1c(=S)[nH]c2ccsc2c1=O)NCc1ccco1" ?
Given back: active

Asked: Look up the recorded call for "Cc1cc(C)c2cc(CN(Cc3nnnn3Cc3ccc(F)cc3)C3CCCC3)c(=O)[nH]c2c1" in this test.
Given back: active

Asked: Could you check what this test reported for "O=C(NCc1ccco1)c1ccc2c(=O)n(-c3ccccc3)c(=S)[nH]c2c1" ?
Given back: inactive

Asked: Identify the outcome logged in this assay for the compound shown: "O=c1[nH]c2cc3c(cc2cc1CN(CCCO)Cc1nnnn1Cc1ccc(F)cc1)OCO3"
Given back: active

Asked: Could you please tell me the result logged for O=C(CN(CC1CCCO1)C(=O)CNS(=O)(=O)c1ccc(Cl)cc1)NCCc1ccccc1 (stereo unspecified) in this assay?
Given back: active

Asked: How was "COc1ccc(S(=O)(=O)N2CCN(CC(=O)Nc3cc(OC)cc(OC)c3)CC2)cc1" classified in this test?
Given back: active

Asked: GET /call?item= O=C(NCC1CCCO1)c1ccc(CS(=O)(=O)Cc2ccc(F)cc2)o1 (stereo unspecified) returns the recorded outcome of this test.
Given back: inactive

Asked: Which outcome did this test record for the compound "Cn1ncc([N+](=O)[O-])c1C(=O)Nc1ccc2c(c1)OCCO2" ?
Given back: inactive

* * *

Target: Cytochrome P450 3A4 (Homo sapiens) (UniProt P08684)
Assay: Cytochrome panel assay with activity outcomes
Conditions: recombinant CYP, pro-luciferin dealkylation, luminescence, p450-cyp3a4; series mostly up to 57.1 µM
In all, about 16,000 compounds went through this assay and about 5,100 (32%) were called active. About 25% were inconclusive and are not listed. Calls follow the shape of the dose curve; as a rule, active = well fitted curve in the direction sought with a large enough effect; inconclusive = small, poorly fitted or top-dose-only effect, or effect the other way; inactive = no such curve, though single readings can be large or run the other way. This is one part of the list.
Field 'call' accepts active, inactive

// known answers, use as guide
| compound | system-tested | category-label |
| --- | --- | --- |
| Cc1ccc(CC(=O)N2CCN(c3cccc(C(F)(F)F)c3)CC2)cc1 | Cytochrome P450 3A4 (Homo sapiens) (UniProt P08684) | active |
| CC(C)CN1CCC2(CC1)CCN(C(=O)c1cc(C(F)(F)F)cc(C(F)(F)F)c1)CC2 | Cytochrome P450 3A4 (Homo sapiens) (UniProt P08684) | inactive |
| CN(C)c1cc[n+](CC(=O)Nc2cc(C(F)(F)F)ccc2Cl)cc1 | Cytochrome P450 3A4 (Homo sapiens) (UniProt P08684) | inactive |
| CC(C)NC(=O)N1CC2(CCN(C(=O)c3cc(C(F)(F)F)cc(C(F)(F)F)c3)CC2)C1 | Cytochrome P450 3A4 (Homo sapiens) (UniProt P08684) | inactive |
| CC(=O)c1ccc(NC(=O)C2CC(c3ccc(F)cc3)=NO2)cc1 (stereo not drawn) | Cytochrome P450 3A4 (Homo sapiens) (UniProt P08684) | inactive |
| CCC[C@H]1C[C@H](C(=O)N[C@H]([C@@H]2O[C@H](SC)[C@@H](O)[C@H](O)[C@@H]2O)[C@H](C)O)N(C)C1 | Cytochrome P450 3A4 (Homo sapiens) (UniProt P08684) | inactive |
| COCCNC(=O)C1CC(c2cccc(OC)c2)=NO1 (stereo not drawn) | Cytochrome P450 3A4 (Homo sapiens) (UniProt P08684) | inactive |
| CC(C)NC(=O)N1CCCC2(CCN(C(=O)c3ccncc3)CC2)C1 | Cytochrome P450 3A4 (Homo sapiens) (UniProt P08684) | active |
| Cc1cc(C(C)(C)C)c(O)c(C)c1CC1=NCCN1 | Cytochrome P450 3A4 (Homo sapiens) (UniProt P08684) | inactive |
| O=C(NCc1ccc2c(c1)OCO2)C1CC(c2cccc(Br)c2)=NO1 (stereo not drawn) | Cytochrome P450 3A4 (Homo sapiens) (UniProt P08684) | active |

Asked: Identify the outcome logged in this assay for the compound shown: C=C(C)C1Cc2nc(N)nc(C)c2C1 (stereo not drawn)
Given back: inactive

Asked: Fill in: this test's call for "O=C(COc1ccc(/C=N/NC(=O)c2ccccc2)cc1)Nc1ccc([N+](=O)[O-])cc1" is ___
Given back: inactive

Asked: // param item: "C[C@@H](C(=O)O)c1ccc(C[C@@H]2CCCC2=O)cc1" ; yields the recorded call
Given back: inactive

Asked: In this assay, the call recorded for "Cc1ccc(C)n1CCN1CCN(CC(=O)Nc2cc(C(F)(F)F)ccc2Cl)CC1" was what?
Given back: active

Asked: For this compound, state the assay outcome: "CC(C)NC(=O)N1CC[C@@]2(CCCN(C(=O)c3cc(C(F)(F)F)cc(C(F)(F)F)c3)C2)C1"
Given back: active

Asked: What call does the record list for "O=C(c1ccco1)N1CCC[C@@]2(CCN(c3ccncc3)C2)C1" ?
Given back: active
